Experimental Target: Multidrug efflux pump subunit AcrB (Escherichia coli (strain K12))
Experiment Notes: Inhibition of AcrB in Escherichia coli BW25113 assessed as reduction in glucose-induced nile red efflux at 100 to 200 uM preincubated for 15 mins followed by nile red addition and incubated for 3 hrs in shaker in presence of CCCP by fluorimetric analysis
Recorded Conditions: dose 100-200 µM, time 195.0 min
Active and inactive are the calls of the source. The rule behind the calls is not given here.
Property Label: inhibition

Smiles Str: O=C(NCCc1ccc(O)c(O)c1)c1ccc(O)c(O)c1
Experimental Target: Multidrug efflux pump subunit AcrB (Escherichia coli (strain K12))
Result: Active
--
Smiles Str: Nc1cc(N)cc(C(=O)NCCc2ccc(O)c(O)c2)c1
Experimental Target: Multidrug efflux pump subunit AcrB (Escherichia coli (strain K12))
Result: Active
--
Smiles Str: Oc1ccc(CCCCCc2ccc(O)c(O)c2)cc1O
Experimental Target: Multidrug efflux pump subunit AcrB (Escherichia coli (strain K12))
Result: Active
--
Smiles Str: Oc1ccc(CCCCCCCc2ccc(O)c(O)c2)cc1O
Experimental Target: Multidrug efflux pump subunit AcrB (Escherichia coli (strain K12))
Result: Active

---

MIC overview
Experimental Target: Multidrug efflux pump subunit AcrB (Escherichia coli (strain K12))
Experiment Notes: Inhibition of AcrB in Escherichia coli BW25113 assessed as potentiation of tetraphenylphosphonium induced antibacterial activity by measuring tetraphenylphosphonium MIC at 64 ug/ml measured after 18 hrs by checkerboard titration method (reference value: 1024 ug/ml)
Recorded Conditions: dose 64.0 µg/ml
Response body: numeric value in µg/mL, unit text excluded.

Below, each entry is followed by its recorded MIC result.
Smiles Str: Nc1cc(N)cc(C(=O)NCCc2ccc(O)c(O)c2)c1
MIC / µg/mL: 512

Smiles Str: Oc1ccc(CCCCc2ccc(Cl)cc2)cc1O
MIC / µg/mL: 512

Smiles Str: O=C(NCCc1ccc(O)c(O)c1)c1cc(O)c(O)c(O)c1
MIC / µg/mL: 512

Smiles Str: O=C(NCCc1ccc(O)c(O)c1)c1ccc(C(F)(F)F)cc1
MIC / µg/mL: 1020

Smiles Str: Oc1ccc(CCCCc2ccc(O)c(O)c2)cc1O
MIC / µg/mL: 512

Sure, the documented MIC for `Oc1ccc(CCCCc2cc3cccc4ccc5cccc2c5c43)cc1O` is 512

---

MIC overview
Experimental Target: Multidrug efflux pump subunit AcrB (Escherichia coli (strain K12))
Experiment Notes: Inhibition of AcrB in Escherichia coli BW25113 assessed as potentiation of levofloxacin induced antibacterial activity by measuring levofloxacin MIC at 128 ug/ml measured after 18 hrs by checkerboard titration method (reference value: 0.06 ug/ml)
Recorded Conditions: dose 128.0 µg/ml
Response body: numeric value in µg/mL, unit text excluded.

Smiles Str: Oc1ccc(CCCCc2cc(O)c(O)c(O)c2)cc1O
Value Units: µg/mL
MIC: 0.06

Sure, the documented MIC for `Oc1ccc(CCCCCCc2ccc(O)c(O)c2)cc1O` is 0.06

Sure, the documented MIC for `Oc1ccc(CCCCc2cc3cccc4ccc5cccc2c5c43)cc1O` is 0.06

Sure, the documented MIC for `O=C(NCCc1ccc(O)c(O)c1)c1ccccc1O` is 0.03

---

Experiment Notes: Growth inhibition of Escherichia coli BW25113 expressing AcrB at 512 ug/ml after 18 hrs by broth microdilution assay
Recorded Conditions: dose 512 µg/ml
Property Label: growth inhibition (GI)

Below, each entry is followed by its recorded growth inhibition (GI) result.
Smiles Str: Nc1ccc(C(=O)NCCc2ccc(O)c(O)c2)cc1
growth inhibition (GI): Non-Toxic
--
Smiles Str: O=C(NCCc1ccc(O)c(O)c1)c1ccc(C(F)(F)F)cc1
growth inhibition (GI): Non-Toxic
--
Smiles Str: Oc1ccc(CCCCc2cc3cccc4ccc5cccc2c5c43)cc1O
growth inhibition (GI): Non-Toxic
--
Smiles Str: Oc1ccc(CCCCc2cc(O)c(O)c(O)c2)cc1O
growth inhibition (GI): Non-Toxic
--
Smiles Str: O=C(NCCc1ccc(O)c(O)c1)c1cc(O)c(O)c(O)c1
growth inhibition (GI): Non-Toxic

We next turn to a different compound, shown below.
Sure, the documented growth inhibition (GI) for `Oc1ccc(CCCCc2ccccn2)cc1O` is Non-Toxic
